B1: DCAF4 (parent)
chain: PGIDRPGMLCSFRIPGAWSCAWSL

Variants of: B1
Experiment: protein stability index of a GFP-peptide fusion (GPS, HEK-293T) (PSI 1-6); higher = more stable;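 also: lentivirally expressed fusions sorted by FACS into six bins by GFP to DsRed ratio, PSI derived from sequencing read proportions per bin multiplied by bin number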
Conditions: c terminus: a fixed tail appended
Item-by-item account of protein stability index
Property Label: protein stability index

> print(dat)
    variant.label           property.label  measured.number
 1            P6C  protein stability index             2.65
 2            G2Y  protein stability index                3
 3           S19L  protein stability index             2.61
 4            M8R  protein stability index             1.99
 5           A17E  protein stability index             3.28
 6           A21C  protein stability index             2.48
 7           R13P  protein stability index             3.03
 8           P15Q  protein stability index             4.94
 9            R5A  protein stability index             2.47
10            D4C  protein stability index             2.61
11           F12T  protein stability index             2.12
12           C10K  protein stability index             2.77
13           C20V  protein stability index             2.58
14            L9Y  protein stability index             2.31
15            M8C  protein stability index             2.66
16            I3E  protein stability index             4.15
17            L9Q  protein stability index             1.76
18           I14W  protein stability index             2.12
19           S19G  protein stability index             2.78
20           I14K  protein stability index             1.68
21           S19I  protein stability index             2.23
22            P1C  protein stability index             2.36
23            I3P  protein stability index             2.33
24            L9D  protein stability index             3.26
25           W18V  protein stability index             3.98
26           W22I  protein stability index             3.25
27           C20W  protein stability index             3.93
28           A17C  protein stability index             2.26
